All values here come from patent US10981911B2.

Molecular target: Tyk2-JH1JH2 (Homo sapiens (Human), UniProt P29597, C1142A/C936A)
Sequence (P29597 580-1182 C936A/C1142A): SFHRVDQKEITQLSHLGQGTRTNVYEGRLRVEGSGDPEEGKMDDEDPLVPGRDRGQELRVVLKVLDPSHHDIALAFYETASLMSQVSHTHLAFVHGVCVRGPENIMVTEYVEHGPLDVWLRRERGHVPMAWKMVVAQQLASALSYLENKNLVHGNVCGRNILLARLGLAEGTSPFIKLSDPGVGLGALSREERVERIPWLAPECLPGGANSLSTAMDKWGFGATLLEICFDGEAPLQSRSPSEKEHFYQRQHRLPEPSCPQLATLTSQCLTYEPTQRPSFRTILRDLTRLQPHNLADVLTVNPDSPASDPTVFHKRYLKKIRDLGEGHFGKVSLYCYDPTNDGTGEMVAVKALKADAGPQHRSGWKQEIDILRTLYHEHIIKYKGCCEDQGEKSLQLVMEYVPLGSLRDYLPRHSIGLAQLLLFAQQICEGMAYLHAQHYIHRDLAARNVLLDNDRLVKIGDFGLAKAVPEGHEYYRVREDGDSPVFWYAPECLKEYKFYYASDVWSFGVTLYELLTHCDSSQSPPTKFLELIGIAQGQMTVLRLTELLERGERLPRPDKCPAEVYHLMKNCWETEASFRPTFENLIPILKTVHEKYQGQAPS
Assay: Enzymatic inhibition assay (RapidFire HTMS), Tyk2
Settings: 50 μM ATP, 200 μM substrate
MEASURED_PROPERTY: IC50 (nM)

[[record]]
compound = "CNC(=O)c1nc2cnc3[nH]ccc3c2n1[C@H]1CC[C@H](CC#N)CC1"
target_entity = "Tyk2-JH1JH2 (Homo sapiens (Human), UniProt P29597, C1142A/C936A)"
test_result = 19.8

[[record]]
compound = "C#Cc1ccc(C(=O)c2ccc(OCc3nc4cnc5[nH]ccc5c4n3[C@H]3CC[C@H](CC#N)CC3)cc2)cc1"
target_entity = "Tyk2-JH1JH2 (Homo sapiens (Human), UniProt P29597, C1142A/C936A)"
test_result = 19.4

[[record]]
compound = "CC(C)c1noc(=O)n1Cc1nc2cnc3[nH]ccc3c2n1[C@H]1CC[C@H](CC#N)CC1"
target_entity = "Tyk2-JH1JH2 (Homo sapiens (Human), UniProt P29597, C1142A/C936A)"
test_result = 10.7


a: N#CC[C@H]1CC[C@H](n2c(CC(=O)NC34CC5CC(CC(O)(C5)C3)C4)nc3cnc4[nH]ccc4c32)CC1
b: CC(C)(O)CCNC(=O)Cc1nc2cnc3[nH]ccc3c2n1[C@H]1CC[C@H](CC#N)CC1
Looking only at measured IC50, which entry is lower, a or b ? Answer = label. a
(a: 4.4 nM, b: 7.2 nM)
